Experiment: Pharmacokinetics (PK) and distribution in brain tissue in rats
Format: in vivo, male SD rats
Settings: male, SD; rat plasma, PO, 5 mg/kg; read-out: AUClast (plasma)
Protocol: Test Example 3: Study on Pharmacokinetics (PK) and Distribution in Brain Tissue in Rats The compounds of the present application were administered to male SD rats by intravenous (IV) and intragastric (PO) respectively to investigate the pharmacokinetic characteristics. The dosages of IV and PO were 1 mg/kg and 5 mg/kg, respectively. […] Pharmacokinetic parameters were calculated by means of non-compartmental model by using WinNonlin 6.3 software.
VALUE_KIND: AUC(0-t)
// return the numeric value with its unit appended

Cc1ncnc2ccc(-c3cc(F)c(NC(=O)N4CCOCC4)nc3-c3ccc(F)cc3)cc12 : 7310 ng·h/mL
Cc1cc(-c2cnc(NC(=O)N3CCOCC3)nc2-c2ccc(F)cc2)cc(Cl)n1 : 11400 ng·h/mL

Next, consider the following compound.
Incoming: Determine from records and report AUC(0-t) for `Cc1ncnc2ccc(-c3cnc(NC(=O)N4CCOCC4)nc3-c3ccc(F)cc3)cc12`
Outgoing: 3220 ng·h/mL
